System: CN0375-F725-PDC multi-cell spheroids, viability;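 note: spheroids exposed to drugs for seven days; 100% = DMSO vehicle control wells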
Test: Anticancer human tumor CN0375-F725-PDC patient-derived colon carcinoma cell line growth inhibition [TAK]
Conditions: second compound 0.949 µM; first compound 1 µM; hits give low values
Measured viability, T/C, listed per entry for reference.
Answer format: numeric, % implied, no suffix.

Cc1nc(NC(=O)N2CCCC2C(N)=O)sc1-c1ccnc(C(C)(C)C(F)(F)F)c1 (centres undefined) + CC(C)NCC(C(=O)N1CCN(c2ncnc3c2C(C)CC3O)CC1)c1ccc(Cl)cc1	88.7

Item under review: CCCS(=O)(=O)Nc1ccc(F)c(C(=O)c2c[nH]c3ncc(-c4ccc(Cl)cc4)cc23)c1F + CC(C)NCC(C(=O)N1CCN(c2ncnc3c2C(C)CC3O)CC1)c1ccc(Cl)cc1 . Reported viability, T/C?
109

Query (molecule): COc1c(OCCCN2CCOCC2)ccc2c3n(c(=NC(=O)c4cnc(N)nc4)nc12)CCN3 + CC(C)NCC(C(=O)N1CCN(c2ncnc3c2C(C)CC3O)CC1)c1ccc(Cl)cc1 ; field requested: viability, T/C
37.6

Report viability, T/C for CC(C)(C)c1nc(-c2cccc(NS(=O)(=O)c3c(F)cccc3F)c2F)c(-c2ccnc(N)n2)s1 + CC(C)NCC(C(=O)N1CCN(c2ncnc3c2C(C)CC3O)CC1)c1ccc(Cl)cc1 please.
111

// data source = PubChem BioAssay AID2060346
